Every entry's value here was drawn from ChEMBL document CHEMBL5058577.

system: HEK-293T; assay: Multiplex assay against HEK293T; format: toxicity, cell-based; details: human, 12 h, 1 µM, compound concentration 1 uM, replicate 2
Please provide measured Population Apoptotic (%) for the entries that follow.
Please give the number followed by its unit.

Example entries begin here.
molecule="COc1cc(NC(=O)CCN2CCC(OC(=O)Nc3ccccc3-c3ccccc3)CC2)c(Cl)cc1CNC[C@H](O)c1ccc(O)c2[nH]c(=O)ccc12 [BATEFENTEROL]" experimental_value=47%
molecule="O=C(NCC(=O)N1CC[C@H](N[C@H]2CC[C@@](O)(c3ccc(-c4ncccn4)cn3)CC2)C1)c1cccc(C(F)(F)F)c1 [PF-4136309]" experimental_value=34%
molecule=Cc1ccc(-c2ccc(F)cc2COc2ccc(CCC(=O)O)cc2)cc1 experimental_value=33%
molecule="O=C(O)c1cc2ccccc2c(Cc2c(O)c(C(=O)O)cc3ccccc23)c1O [PAMOIC ACID]" experimental_value=58%
molecule="C[C@H]1[C@H]2CC[C@H]3[C@@H]4CC=C5C[C@@H](N(C)C)CC[C@]5(C)[C@H]4CC[C@]23CN1C [CONESSINE]" experimental_value=48%

Give Population Apoptotic (%) for all molecules that follow.
1. COc1ccccc1N1CCN(CCCCNC(=O)c2ccc3ccccc3c2)CC1.Cl
2. Cl.Clc1ccc2nsnc2c1NC1=NCCN1 [TIZANIDINE HYDROCHLORIDE]

1: 36%; 2: 44%

Give Population Apoptotic (%) for each listed item.
1. CCCN1CCC[C@@H]2Cc3n[nH]cc3C[C@H]21.Cl [QUINPIROLE HYDROCHLORIDE]
2. CN1CCN2c3ncccc3Cc3ccccc3C2C1 (stereo not drawn) [MIRTAZAPINE]

1: 63%; 2: 51%
